experiment: Oral bioavailability of hydrocodone conjugates in rats, LC/MS/MS; details: male, Sprague-Dawley, rat, plasma, po, 2 mg/kg

>  <molecule>
COc1ccc2c3c1O[C@H]1C(=O)CC[C@H]4[C@@H](C2)N(C)CC[C@]314 [Hydrocodone, reference compound]

>  <concentration at 2 h [ng/mL]>
3.4

$$$$

---

experiment: Oral bioavailability of hydrocodone conjugates in rats, LC/MS/MS; details: oral, 1 mg/kg dose, hydrocodone plus hydromorphone
Where a SMILES comes first, the peptide text is derived from it. The star is where a group is joined. X1 = COc1ccc2c3c1O[C@H]1C(O*)=CC[C@H]4[C@@H](C2)N(C)CC[C@]314
endpoint.label: Cmax (ng/mL)

>  <compound>
CC[C@H](C)[C@H](NC(=O)[C@H](Cc1ccccc1)NC(=O)[C@H](Cc1ccccc1)NC(=O)[C@H](CCC(=O)O)NC(=O)[C@@H](N)CCC(=O)O)C(=O)OC1=CC[C@H]2[C@H]3Cc4ccc(OC)c5c4[C@@]2(CCN3C)[C@H]1O5 [EEFFI[SEQ ID NO: 5]-HC] (H-EEFFI-X1)

>  <measured>
12.9

$$$$
>  <compound>
CC[C@H](C)[C@H](NC(=O)[C@H](Cc1ccc(O)cc1)NC(=O)[C@@H](N)Cc1ccc(O)cc1)C(=O)OC1=CC[C@H]2[C@H]3Cc4ccc(OC)c5c4[C@@]2(CCN3C)[C@H]1O5 [YYI-HC, Tyr-Tyr-Ile-Hydrocodone]

>  <measured>
9.2

$$$$
>  <compound>
COc1ccc2c3c1O[C@H]1C(OC(=O)[C@H](Cc4ccccc4)NC(=O)[C@H](Cc4ccccc4)NC(=O)[C@H](Cc4ccccc4)NC(=O)[C@H](CCC(=O)O)NC(=O)[C@@H](N)CCC(=O)O)=CC[C@H]4[C@@H](C2)N(C)CC[C@]314 [EEFFF[SEQ ID NO: 3]-HC] (H-EEFFF-X1)

>  <measured>
11.3

$$$$
>  <compound>
CC[C@H](C)[C@H](NC(=O)[C@H](CC(=O)O)NC(=O)[C@@H](N)CC(=O)O)C(=O)OC1=CC[C@H]2[C@H]3Cc4ccc(OC)c5c4[C@@]2(CCN3C)[C@H]1O5 [DDI-HC, Asp-Asp-Ile-Hydrocodone]

>  <measured>
14.9

$$$$
>  <compound>
CC[C@H](C)[C@H](NC(=O)[C@H](Cc1ccccc1)NC(=O)[C@H](Cc1ccccc1)NC(=O)[C@H](Cc1ccc(O)cc1)NC(=O)[C@@H](N)Cc1ccc(O)cc1)C(=O)OC1=CC[C@H]2[C@H]3Cc4ccc(OC)c5c4[C@@]2(CCN3C)[C@H]1O5 [YYFFI[SEQ ID NO: 8]-HC] (H-YYFFI-X1)

>  <measured>
7

$$$$

---

experiment: Oral bioavailability of hydrocodone conjugates in rats, LC/MS/MS; conditions: oral, 5 mg/kg dose, 0.5 Hours
Where a SMILES comes first, the peptide text is derived from it. The star is where a group is joined. X1 = COc1ccc2c3c1O[C@H]1C(O*)=CC[C@H]4[C@@H](C2)N(C)CC[C@]314
endpoint.label: hydrocodone plus hydromorphone concentration (ng/mL)

>  <molecule>
CC[C@H](C)[C@H](NC(=O)[C@H](Cc1ccccc1)NC(=O)[C@H](Cc1ccccc1)NC(=O)[C@H](Cc1ccc(O)cc1)NC(=O)[C@@H](N)Cc1ccc(O)cc1)C(=O)OC1=CC[C@H]2[C@H]3Cc4ccc(OC)c5c4[C@@]2(CCN3C)[C@H]1O5 [YYFFI[SEQ ID NO: 8]-HC] (H-YYFFI-X1)

>  <quantity.unit>
ng/mL

>  <measured>
46

$$$$
>  <molecule>
CC[C@H](C)[C@H](NC(=O)[C@H](CC(=O)O)NC(=O)[C@@H](N)CC(=O)O)C(=O)OC1=CC[C@H]2[C@H]3Cc4ccc(OC)c5c4[C@@]2(CCN3C)[C@H]1O5 [DDI-HC, Asp-Asp-Ile-Hydrocodone]

>  <quantity.unit>
ng/mL

>  <measured>
115

$$$$
>  <molecule>
CC[C@H](C)[C@H](NC(=O)[C@H](Cc1ccc(O)cc1)NC(=O)[C@@H](N)Cc1ccc(O)cc1)C(=O)OC1=CC[C@H]2[C@H]3Cc4ccc(OC)c5c4[C@@]2(CCN3C)[C@H]1O5 [YYI-HC, Tyr-Tyr-Ile-Hydrocodone]

>  <quantity.unit>
ng/mL

>  <measured>
15

$$$$
>  <molecule>
CC[C@H](C)[C@H](NC(=O)[C@H](Cc1ccccc1)NC(=O)[C@H](Cc1ccccc1)NC(=O)[C@H](CCC(=O)O)NC(=O)[C@@H](N)CCC(=O)O)C(=O)OC1=CC[C@H]2[C@H]3Cc4ccc(OC)c5c4[C@@]2(CCN3C)[C@H]1O5 [EEFFI[SEQ ID NO: 5]-HC] (H-EEFFI-X1)

>  <quantity.unit>
ng/mL

>  <measured>
44

$$$$
